# study.target: Ustilago maydis ACC (Mycosarcoma maydis, UniProt A0A0D1DYD5)
# Sequence (A0A0D1DYD5 entry or part of it): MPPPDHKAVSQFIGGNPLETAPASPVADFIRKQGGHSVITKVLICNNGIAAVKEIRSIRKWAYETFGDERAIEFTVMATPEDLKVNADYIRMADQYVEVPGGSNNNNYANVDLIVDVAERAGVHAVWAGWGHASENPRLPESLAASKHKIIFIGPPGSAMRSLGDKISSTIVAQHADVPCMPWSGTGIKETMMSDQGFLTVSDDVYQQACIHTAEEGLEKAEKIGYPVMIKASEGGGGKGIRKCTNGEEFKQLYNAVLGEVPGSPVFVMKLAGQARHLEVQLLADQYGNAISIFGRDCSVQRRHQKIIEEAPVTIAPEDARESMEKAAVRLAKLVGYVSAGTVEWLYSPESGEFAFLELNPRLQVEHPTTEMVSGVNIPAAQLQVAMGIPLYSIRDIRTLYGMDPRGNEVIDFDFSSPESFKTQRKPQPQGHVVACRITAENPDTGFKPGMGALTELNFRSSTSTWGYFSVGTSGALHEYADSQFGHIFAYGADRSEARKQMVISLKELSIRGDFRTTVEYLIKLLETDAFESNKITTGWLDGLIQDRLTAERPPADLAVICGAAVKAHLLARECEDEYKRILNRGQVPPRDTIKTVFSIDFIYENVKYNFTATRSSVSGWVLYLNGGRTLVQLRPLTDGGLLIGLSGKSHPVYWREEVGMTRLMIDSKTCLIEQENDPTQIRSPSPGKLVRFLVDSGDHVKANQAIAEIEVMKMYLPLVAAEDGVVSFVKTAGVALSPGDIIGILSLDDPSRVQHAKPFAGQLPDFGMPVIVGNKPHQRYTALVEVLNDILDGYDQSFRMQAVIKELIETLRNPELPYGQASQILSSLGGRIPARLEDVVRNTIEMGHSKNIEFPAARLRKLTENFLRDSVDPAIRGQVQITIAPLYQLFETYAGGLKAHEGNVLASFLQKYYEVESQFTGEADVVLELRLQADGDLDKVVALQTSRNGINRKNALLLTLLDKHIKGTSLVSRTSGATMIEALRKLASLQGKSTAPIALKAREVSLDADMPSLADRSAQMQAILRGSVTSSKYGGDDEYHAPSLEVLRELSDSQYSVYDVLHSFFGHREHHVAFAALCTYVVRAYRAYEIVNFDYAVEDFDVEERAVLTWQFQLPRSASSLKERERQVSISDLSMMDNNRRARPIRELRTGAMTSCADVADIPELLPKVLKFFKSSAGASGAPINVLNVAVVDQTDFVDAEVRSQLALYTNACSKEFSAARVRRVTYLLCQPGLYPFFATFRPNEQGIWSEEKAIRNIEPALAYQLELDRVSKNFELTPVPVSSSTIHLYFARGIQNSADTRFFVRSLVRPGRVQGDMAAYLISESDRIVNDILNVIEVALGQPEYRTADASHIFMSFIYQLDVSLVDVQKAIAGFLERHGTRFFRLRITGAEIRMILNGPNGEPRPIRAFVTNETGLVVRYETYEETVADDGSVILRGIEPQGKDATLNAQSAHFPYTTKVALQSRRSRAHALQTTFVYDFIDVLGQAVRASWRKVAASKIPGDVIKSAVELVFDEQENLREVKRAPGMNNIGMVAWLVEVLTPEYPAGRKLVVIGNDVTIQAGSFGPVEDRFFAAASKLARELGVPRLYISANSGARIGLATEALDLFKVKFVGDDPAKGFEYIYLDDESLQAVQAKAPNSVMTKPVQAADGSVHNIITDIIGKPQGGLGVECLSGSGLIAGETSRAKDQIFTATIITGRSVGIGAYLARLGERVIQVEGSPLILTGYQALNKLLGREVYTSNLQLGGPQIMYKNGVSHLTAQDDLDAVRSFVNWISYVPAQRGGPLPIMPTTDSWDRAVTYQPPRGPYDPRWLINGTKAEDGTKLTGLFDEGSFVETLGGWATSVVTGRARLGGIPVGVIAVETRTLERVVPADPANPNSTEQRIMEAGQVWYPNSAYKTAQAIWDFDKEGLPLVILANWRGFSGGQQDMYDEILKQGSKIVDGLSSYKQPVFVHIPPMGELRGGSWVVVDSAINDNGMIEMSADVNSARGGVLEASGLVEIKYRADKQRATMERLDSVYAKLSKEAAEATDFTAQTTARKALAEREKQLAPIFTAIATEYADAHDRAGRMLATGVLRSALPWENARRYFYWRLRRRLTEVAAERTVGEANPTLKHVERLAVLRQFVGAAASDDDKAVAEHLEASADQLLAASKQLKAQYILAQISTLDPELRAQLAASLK
# assay.text: biochemical
# Format: biochemical
# assay.setup: Enzyme activity IC50 U. maydis wt ACC
assay.metric: IC50

[[record]]
compound = "CC[N+](CC)(CCCCN(Cc1cc(C)cc(C)c1)Cc1cc(C)cc(C)c1)Cc1cc(C)cc(C)c1.[Br-] [Compound 28, formate]"
recorded_value = "11 µM"


----------
# study.target: rat liver ACC (Rattus norvegicus)
# assay.text: Rat liver ACC activity, [14C]bicarbonate incorporation
# Type: biochemical
# assay.setup: Table II; enzyme concentration 25 nM; ND = none detected; read-out: Enzyme Activity IC50 Rat liver ACC
pIC50: −log10 of the molar value.
assay.metric: pIC50

[[record]]
compound = "CC[N+](CC)(CCCCN(Cc1cc(C)cc(C)c1)S(=O)(=O)c1ccc2ccccc2c1)Cc1cc(C)cc(C)c1 [Compound 85]"
study_target = "rat liver ACC (Rattus norvegicus)"
recorded_value = 4.37

